system: Bel-7402; assay: Antiproliferative activity against human Bel-7402 cells assessed as inhibition of cell growth measured after 24 hrs by MTT assay; format: functional, cell-based; details: Bel-7402, 24 h
value kind: IC50 (µM)

smiles notation: CCN(CC)CCCNC(=O)c1cc2cc(Nc3nccc(-c4sc(NC)nc4C)n3)ccc2[nH]1
tgt: Bel-7402
numeric readout: 38.3

====

test: Cytotoxicity against human MCF-10A cells assessed as inhibition of cell growth measured after 24 hrs by MTT assay; assay type: toxicity, cell-based

smiles notation: CN(C)CCCNC(=O)c1cc2cc(Nc3nccc(-c4ccc(Cl)s4)n3)ccc2[nH]1
IC50 at 24 h: 7.43 µM
//
smiles notation: CCN(CC)CCCNC(=O)c1cc2cc(Nc3nccc(-c4ccc(Cl)s4)n3)ccc2[nH]1
IC50 at 24 h: 5.54 µM
//
smiles notation: Cc1nc(-c2ccnc(Nc3ccc4[nH]c(C(=O)NCCN(C)C)cc4c3)n2)c(C)s1
IC50 at 24 h: 15 µM
//
smiles notation: CCN(CC)CCCNC(=O)c1cc2cc(Nc3nccc(-c4ccccc4OC)n3)ccc2[nH]1
IC50 at 24 h: > 20 µM
//
smiles notation: CCN(CC)CCCNC(=O)c1cc2cc(Nc3nccc(-c4cc(OCc5ccccc5)cc(OCc5ccccc5)c4)n3)ccc2[nH]1
IC50 at 24 h: 2.89 µM
//
smiles notation: COc1ccc(-c2ccnc(Nc3ccc4[nH]c(C(=O)NCCN5CCN(C)CC5)cc4c3)n2)cc1OC
IC50 at 24 h: > 20 µM
//
smiles notation: CCN(CC)CCCNC(=O)c1cc2cc(Nc3nccc(-c4cccc(OCc5ccccc5)c4)n3)ccc2[nH]1
IC50 at 24 h: > 20 µM
//
smiles notation: CCN(CC)CCCNC(=O)c1cc2cc(Nc3nccc(-c4sc(NC)nc4C)n3)ccc2[nH]1
IC50 at 24 h: 48 µM
//
smiles notation: CCCCCNC(=O)c1cc2cc(Nc3nccc(-c4ccccc4)n3)ccc2[nH]1
IC50 at 24 h: > 20 µM
//
smiles notation: COc1ccc(-c2ccnc(Nc3ccc4[nH]c(C(=O)NCCCN(C)C)cc4c3)n2)cc1OC
IC50 at 24 h: 15 µM
//
smiles notation: CN(C)CCNC(=O)c1cc2cc(Nc3nccc(-c4cccnc4)n3)ccc2[nH]1
IC50 at 24 h: > 20 µM
//
smiles notation: CN(C)CCNC(=O)c1cc2cc(Nc3nccc(-c4ccccc4)n3)ccc2[nH]1
IC50 at 24 h: > 20 µM
//
smiles notation: COc1ccc(-c2ccnc(Nc3ccc4[nH]c(C(=O)NCCN5CCCC5)cc4c3)n2)cc1OC
IC50 at 24 h: 9.71 µM
//
smiles notation: CN(C)CCNC(=O)c1cc2cc(Nc3nccc(-c4ccc(C(F)(F)F)cc4)n3)ccc2[nH]1
IC50 at 24 h: 2.12 µM
//
smiles notation: CC(C)N(CCNC(=O)c1cc2cc(Nc3nccc(-c4ccccc4)n3)ccc2[nH]1)C(C)C
IC50 at 24 h: 4.05 µM
//
smiles notation: CCCCN(CCCC)CCCNC(=O)c1cc2cc(Nc3nccc(-c4ccccc4)n3)ccc2[nH]1
IC50 at 24 h: 4.96 µM
//
smiles notation: CN(C)CCNC(=O)c1cc2cc(Nc3nccc(-c4cccc(OCc5ccccc5)c4)n3)ccc2[nH]1
IC50 at 24 h: > 20 µM
//
smiles notation: COc1ccc2[nH]cc(CCNC(=O)c3cc4cc(Nc5nccc(-c6cccnc6)n5)ccc4[nH]3)c2c1
IC50 at 24 h: > 20 µM

Each recorded value in this set is attributed to ChEMBL document CHEMBL5344425.
